Overview of recorded Cas9 with SSAP activity (normalized) for various molecules
# Tested on: gene editing with Cas9
# protocol_details: Screen of 322 new SSAP proteins, gene editing activity with Cas9 (Table 5)
# Assay type: cell-based
# experimental_conditions: normalized

Some solved entries appear below for comparison.
molecule	assay_value
SSAP_267: SEQ ID NO: 436; Clostridium combesii (protein, listed as Clostridium combesii) ANTKAIVLQETANNLNTLLKAKVKALPKGFNETRFLQNCMTVLQDTRNIEKCNSVSVARTMLKGAFLGLDFFSKECYAIPYNDYKTGKCHLEFQTDYKGERKLMKQYSVRPIKDIYAKVVREGDKFEEIIEKGIPTINFRPKPFSNEKIIGVFAVVLFEDGGLLYETMSVEDVEKIKVGFAKRDKEGNYSKAWTATPEEMYKKTVIRRLRKSVELEFDSVEQQKTYEEASEFDVKRDEEVKEEASPFENVDFEEAEEGNTIEAKQE	−0.145
SSAP_63: SEQ ID NO: 232 (protein) SELQQAAQGQADAGPVQVIYSHAKEIQNVLAKGTDMDRWLQMARLAVMRDPNLVNAAKRDPGSLMQAMLDCAEKGHIPGTEDYYLVPRKGGIQGMESWKGIAKRIMRSGRYQSIVAEVVYEGEDFDFNPNTMDRPVHQIKYMARTSGQPVLSYAYAVDHEGKPSTIAVADPRYIAKVKANSKGTVWADWDEAMYKKTAVKMLVDYVDTSSTDRRGVSTVQVDGPVGTFIDGVLEIEGGDQ	2.381
SSAP_102: SEQ ID NO: 271; Halomonas coralii (protein, listed as Halomonas coralii) TDQATAEPQEDLGKQLQQHSQRKPMPTTIQGMLKDDRFTGQIARALPKHITPDRISRIALTEVNKTPALGKCDPMSLFGSIIQSAQLGLELGGALGHAYLVPYKDQAQFIIGYRGMIDLARRSGQMVSLQAHTVHENDDFEFEYGLDEKLRHVPARGQRGPMIAVYAVAKLTGGGHQIEVMWKEDVDAIRQQSKAGNSGPWRDHYEEMAKKTAIRRLFKYLPVSVEMQKAVSLDEQAEAGVQDNNVFDGEFSYQEPE	−0.065
SSAP_60: SEQ ID NO: 229 (protein) ASKNEAIEVSPAEIASVKEKPASIVKAEKAKKEPCALVKYEDAEGREVVLTREDIINTISSNPRITDKEIKLFIELARAQKLNPFTREIFITKYGDYPATFIVGKDVFTKRAQSNPLFKGMQAGIIVQRGNAVDQREGSATFGDEMLIGGWCKVYVQGYDVPIYDSVSFNEYAARKTDGTLNAMWASKPATMIRKVAIVHALREAFPSDFQGLYDQSEMGLSGQGGE	0.560

// switching to the query molecule
Any idea what Cas9 with SSAP activity (normalized) was measured for SSAP_69: SEQ ID NO: 238 (protein) ETIDIKQELASQAQTDSKKEVKLTKAMSIAEMIKAMMPEIKRALPSMITPERFTRIALSALNNTPELQACTPMSFISALLNAAQLGLEINSPLGHAYLIPYKNKGVLECQFQIGYLGLIALAYRNELMQTIQAQCVYENDEFLYEYGLNPKLVHRPATSDRGEPVFFYGLFKMINSGFGFCVMSKQEMDEFARTYSKGLASSFSPWKTSYNEMAKKTVIKQALKYAPIKTDFQKALSTDESIKYAISEDMTEAVNEIVSQNTEVA ?
−0.810
